Would you mind telling me the reported Emax of each entry?
- assay.target: human PAR2 (Homo sapiens, UniProt P55085)
- Construct: expressed in transfected cells; host or cells: NIH3T3 cells, transiently transfected; receptor in pSI-derived mammalian expression vector
- Sequence (P55085 26-397): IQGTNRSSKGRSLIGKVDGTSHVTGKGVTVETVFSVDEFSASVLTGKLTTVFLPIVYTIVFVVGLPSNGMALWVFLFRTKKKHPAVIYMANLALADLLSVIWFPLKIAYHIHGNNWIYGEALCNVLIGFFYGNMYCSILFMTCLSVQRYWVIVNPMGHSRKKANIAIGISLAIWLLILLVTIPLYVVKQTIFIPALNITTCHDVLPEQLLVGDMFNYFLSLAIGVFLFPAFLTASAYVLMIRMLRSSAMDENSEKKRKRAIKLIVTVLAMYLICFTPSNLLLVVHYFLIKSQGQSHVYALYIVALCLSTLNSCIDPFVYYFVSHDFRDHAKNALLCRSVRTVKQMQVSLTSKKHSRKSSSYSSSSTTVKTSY
- assay.explanation: Receptor Selection and Amplification Technology (R-SAT) functional receptor assay
- Assay type: cell-based
- condition.parameters: percent maximum activation relative to the ligand SLIGRL, read-out: % Efficacy
Give bare numbers, in %.

Solved entries:
{"compound": "CC(=NNC(=O)C1C(=O)NCC1c1ccccc1)c1cccc(Br)c1 (mixture of isomers) [Compound 3]", "assay.metric": "Emax", "unit.label": "%", "endpoint.value": 134}
{"compound": "CC(=NNC(=O)C1C(=O)NCC1c1ccccc1)c1cncc(Br)c1 (mixture of isomers) [Compound 7]", "assay.metric": "Emax", "unit.label": "%", "endpoint.value": 106}
{"compound": "CC(=NNC(=O)C1C(=O)NCC1c1ccccc1)c1ccc(Br)s1 (mixture of isomers) [Compound 4]", "assay.metric": "Emax", "unit.label": "%", "endpoint.value": 87}

Provide reported Emax for each item, in the same order as listed.
1. CC(=NNC(=O)C1C(=O)NCC1c1ccccc1)c1cc(Br)cs1 (mixture of isomers) [Compound 6]
2. CC(=NNC(=O)C1C(=O)NCC1c1ccccc1)c1cccs1 (mixture of isomers) [Compound 5]

1. 109
2. 52
